PROCEDURE_TEXT: Pharmacokinetic measurement in mouse, single sc dose 30 nmol/kg, plasma ELISA
MEASUREMENT_CONDITIONS: single sc dose 30 nmol/kg

>  <MOLECULE>
MLC006: fusion polypeptide SEQ ID NO: 253 conjugated with Moiety A at 36K of GLP-1 (conjugate, Moiety A conjugated at K36) HGEGTFTSDVSSYLEEQAAREFIAWLVRGKGGQEPGQEPGQEPGQEPGQEPGQEPGQEPGQEPGAQPGAQPARQGDHCPLGPGRCCRLHTVRASLEDLGWADWVLSPREVQVTMCIGACPSQFRAANLHAQIKTSLHRLRPDTVPAPCCVPASYNPMVLIQRTDTGVSLQTYDDLLARDCHCI

>  <Tmax (h)>
2.7

$$$$
>  <MOLECULE>
MLC013: fusion polypeptide SEQ ID NO: 260 conjugated with Moiety A at 1K of Linker (conjugate, Moiety A conjugated at linker K1) HGEGTFTSDVSSYLEEQAAREFIAWLVRGGGKQEPGAQPGQEPGAQPGQEPGAQPGQEPGAQPGQEPGAQPGQEPGAQPGAQPGAQPGAQPGAQPGAQPGAQPGAQPGAQPARQGDHCPLGPGRCCRLHTVRASLEDLGWADWVLSPREVQVTMCIGACPSQFRAANLHAQIKTSLHRLRPDTVPAPCCVPASYNPMVLIQRTDTGVSLQTYDDLLARDCHCI

>  <Tmax (h)>
3.3

$$$$

Value source: patent US11453711B2
